src = ChEMBL document CHEMBL1140510

# TARGET SYSTEM: UniProtKB P34972
RECORDED ENDPOINT: Ki (nM)

- CCS(=O)(=O)n1c2c(c3cc(C(=O)N4CCC(C)CC4)ccc31)CN(C1CCOCC1)C2: 216
- CCS(=O)(=O)n1c2c(c3cc(C(=O)N4CCC(C)CC4)ccc31)CN(C1CCOC1)C2 (centres undefined): 27.8
- CCS(=O)(=O)n1c2c(c3cc(C(=O)N4CCC(C)CC4)ccc31)CN(C(C)C)C2: 8.9
- CCS(=O)(=O)n1c2c(c3cc(C(=O)N4CCOCC4)ccc31)CN(C1CCCC1)C2: 308

---

# Organism: Homo sapiens
# EXPERIMENT SUMMARY: Selectivity for human CB2 receptor over human CB1 receptor
RECORDED ENDPOINT: Ratio Ki

• CCS(=O)(=O)n1c2c(c3cc(C(=O)N4CCC(C)CC4)ccc31)CN(Cc1ccccc1)C2 = 34.4
• CCS(=O)(=O)n1c2c(c3cc(C(=O)N4CCCCC4)ccc31)CN(C1CCCC1)C2 = 46.7
• CCCCN(C)C(=O)c1ccc2c(c1)c1c(n2S(=O)(=O)CC)CN(C2CCCC2)C1 = 34.9
• CC1CCN(C(=O)c2ccc3c(c2)c2c(n3S(=O)(=O)c3ccccc3)CN(C3CCCC3)C2)CC1 = 14.5
• CCS(=O)(=O)n1c2c(c3cc(C(=O)N4CCC(F)CC4)ccc31)CN(C1CCCC1)C2 = 65.9
• CCS(=O)(=O)n1c2c(c3cc(C(=O)N4CCC(C)CC4)ccc31)CN(C1CCOC1)C2 (configuration not stated) = 35
• CCS(=O)(=O)n1c2c(c3cc(C(=O)N4CCC(C)CC4)ccc31)CN(C1CCCC1)C2 = 9.4
• CCS(=O)(=O)n1c2c(c3cc(C(=O)N4CCC(C)CC4)ccc31)CN(CCC1CCCCC1)C2 = 1.4
• CCS(=O)(=O)n1c2c(c3cc(C(=O)N4CCC(OC)CC4)ccc31)CN(C1CCCC1)C2 = 77.2
• CC(=O)n1c2c(c3cc(C(=O)N4CCC(C)CC4)ccc31)CN(C1CCCC1)C2 = 26.5
• CCCCCc1cc(O)c2c(c1)CC(C)(C)[C@@H]1CCC(C)=C[C@@H]21 = 0.14
• C=CCN1Cc2c(n(S(=O)(=O)CC)c3ccc(C(=O)N4CCC(C)CC4)cc23)C1 = 41.1

---

Endpoint: Ki. System: Cannabinoid receptor 2 (Homo sapiens). Items follow.
Sequence (P34972 whole entry): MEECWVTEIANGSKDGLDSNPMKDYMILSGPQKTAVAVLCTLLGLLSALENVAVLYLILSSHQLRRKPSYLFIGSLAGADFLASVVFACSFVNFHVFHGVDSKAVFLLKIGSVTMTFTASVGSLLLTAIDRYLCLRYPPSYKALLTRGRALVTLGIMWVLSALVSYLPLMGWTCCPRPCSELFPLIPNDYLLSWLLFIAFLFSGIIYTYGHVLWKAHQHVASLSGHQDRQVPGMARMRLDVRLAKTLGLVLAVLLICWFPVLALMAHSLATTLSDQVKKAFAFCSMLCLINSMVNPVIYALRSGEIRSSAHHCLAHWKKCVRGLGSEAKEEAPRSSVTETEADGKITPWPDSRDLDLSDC
RECORDED ENDPOINT: Ki (nM)

* CCCN1Cc2c(n(S(=O)(=O)CC)c3ccc(C(=O)N4CCC(C)CC4)cc23)C1 | 11.1
* CCS(=O)(=O)n1c2c(c3cc(C(=O)N4CCC(C)CC4)ccc31)CN(C1CCCCO1)C2 (stereo not drawn) | 17.6
* CCS(=O)(=O)n1c2c(c3cc(C(=O)N4CCCCC4)ccc31)CN(C1CCCC1)C2 | 17.5
* CC1CCN(C(=O)c2ccc3[nH]c4c(c3c2)CN(C2CCCC2)C4)CC1 | 4720
* CCS(=O)(=O)n1c2c(c3cc(C(=O)N(C)CCC(C)C)ccc31)CN(C1CCCC1)C2 | 38.1
* CC1CCN(C(=O)c2ccc3c(c2)c2c(n3S(=O)(=O)c3ccccc3)CN(C3CCCC3)C2)CC1 | 17.9
* CCS(=O)(=O)n1c2c(c3cc(C(=O)N(C)C(C)C)ccc31)CN(C1CCCC1)C2 | 107
* CCCS(=O)(=O)n1c2c(c3cc(C(=O)N4CCC(C)CC4)ccc31)CN(C1CCCC1)C2 | 22.3
* CCS(=O)(=O)n1c2c(c3cc(C(=O)N4CCC(C)CC4)ccc31)CN(CC1CC1)C2 | 6.3
* C=CCn1c2c(c3cc(C(=O)N4CCC(C)CC4)ccc31)CN(C1CCCC1)C2 | 23.3
* CC1CCN(C(=O)c2ccc3c(c2)c2c(n3S(C)(=O)=O)CN(C3CCCC3)C2)CC1 | 7.9
* C=CCN1Cc2c(n(S(=O)(=O)CC)c3ccc(C(=O)N4CCC(C)CC4)cc23)C1 | 6.4
* CCCCN(C)C(=O)c1ccc2c(c1)c1c(n2S(=O)(=O)CC)CN(C2CCCC2)C1 | 22.3
